List of residual activity values.
measurementTarget: Serine/threonine-protein kinase PLK2 (Homo sapiens)
assaySetup: at 10 µM
Description: Millipore: Percentage of residual kinase activity of PLK2 at 10uM relative to control. Control inhibitor: Phosphoric acid* at 0.3uM. Buffer: 8 mM MOPS pH 7.0, 0.2 mM EDTA
Enter your answer as a number in %; do not include the unit.

Please review the following examples before continuing.
# query: residual activity of entry O=C1c2ccccc2-[n+]2ccc3c([nH]c4ccccc43)c21
101

Name the reported residual activity value associated with the molecule O=C1NC(=O)/C(=C/c2ccc3c(c2)OC(F)(F)O3)S1
95

Can you look up the measured residual activity of c1ccc(-c2n[nH]cc2-c2ccnc3ccccc23)nc1 for me?
96

More entries:
Query: residual activity; subject: N#C/C(=C(\N)Sc1ccc(N)cc1)c1ccccc1C(F)(F)F
98

Returns the measured residual activity for the input molecule. Input: Ic1cccc(CSc2nnc(-c3ccncc3)o2)c1
97

Which value of residual activity has been reported for Oc1n[nH]c2nnc(-c3c(-c4ccccc4)nn4ccccc34)cc12 in the records?
99

###

Property: residual activity; scope: individual molecules
measurementTarget: Muscle, skeletal receptor tyrosine-protein kinase (Homo sapiens) (UniProt O15146)
Sequence (O15146 whole entry): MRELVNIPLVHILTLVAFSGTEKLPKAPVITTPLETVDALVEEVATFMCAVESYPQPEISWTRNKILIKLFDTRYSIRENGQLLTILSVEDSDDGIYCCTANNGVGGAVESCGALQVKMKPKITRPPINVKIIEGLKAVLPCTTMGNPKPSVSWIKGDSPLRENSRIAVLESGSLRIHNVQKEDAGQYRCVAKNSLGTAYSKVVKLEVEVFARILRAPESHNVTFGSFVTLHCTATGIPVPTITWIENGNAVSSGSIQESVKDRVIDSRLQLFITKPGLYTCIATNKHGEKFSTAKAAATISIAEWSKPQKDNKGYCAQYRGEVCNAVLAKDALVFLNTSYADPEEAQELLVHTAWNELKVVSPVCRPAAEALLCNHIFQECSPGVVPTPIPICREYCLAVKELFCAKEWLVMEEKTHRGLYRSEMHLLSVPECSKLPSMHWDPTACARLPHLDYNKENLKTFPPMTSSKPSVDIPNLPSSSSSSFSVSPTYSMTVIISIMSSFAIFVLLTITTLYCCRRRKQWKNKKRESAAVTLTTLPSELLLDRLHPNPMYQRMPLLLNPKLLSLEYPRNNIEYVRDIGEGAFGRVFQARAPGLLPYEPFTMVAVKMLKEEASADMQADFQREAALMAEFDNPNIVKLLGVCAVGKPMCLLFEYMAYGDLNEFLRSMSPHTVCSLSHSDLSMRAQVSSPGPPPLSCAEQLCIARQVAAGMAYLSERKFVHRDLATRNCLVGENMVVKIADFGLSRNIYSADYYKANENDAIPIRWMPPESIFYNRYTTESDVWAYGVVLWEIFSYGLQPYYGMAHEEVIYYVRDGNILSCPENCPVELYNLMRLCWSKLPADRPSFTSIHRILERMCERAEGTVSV
assaySetup: at 10 µM
Report as a plain number; the unit % is understood.

Study these solved cases before continuing.
Param readout = residual activity; param system = Muscle, skeletal receptor tyrosine-protein kinase (Homo sapiens) (UniProt O15146); param query = Oc1n[nH]c2nnc(-c3c(-c4ccccc4)nn4ccccc34)cc12 ; response: value
84

Record lookup: for Muscle, skeletal receptor tyrosine-protein kinase (Homo sapiens) (UniProt O15146), what residual activity belongs to CN(C)c1ccc(/C=C2\C(=O)Nc3ccccc32)cc1 ?
25

Form: Entry = Cc1nc2cc3nc(-c4cccs4)cnc3cc2n1C | System = Muscle, skeletal receptor tyrosine-protein kinase (Homo sapiens) (UniProt O15146) | residual activity = ____
55

Next:
Reported residual activity for Muscle, skeletal receptor tyrosine-protein kinase (Homo sapiens) (UniProt O15146), given COc1cc2ncnc(N3CCN(C(=O)Nc4ccc(Oc5ccccc5)cc4)CC3)c2cc1OC ?
49

State its residual activity on Muscle, skeletal receptor tyrosine-protein kinase (Homo sapiens) (UniProt O15146): O=C(O)c1ccc2c3c1cccc3c(=O)n1c3ccccc3nc21
94

Please state recorded residual activity (tested on Muscle, skeletal receptor tyrosine-protein kinase (Homo sapiens) (UniProt O15146)) of c1ccc(-c2n[nH]c3c2oc2ccccc23)cc1
0

Requested read-out residual activity, target or system Muscle, skeletal receptor tyrosine-protein kinase (Homo sapiens) (UniProt O15146), entry CCC(=O)Nc1ccc2ncnc(Nc3cccc(Br)c3)c2c1
84

###

Listed compounds paired with reported residual activity
measurementTarget: Mitogen-activated protein kinase 10 (Homo sapiens)
assaySetup: at 10 µM
Form entry: value (%) — number only.

Worked cases, answers included:
Any idea what its residual activity is? The compound is COc1ccc(OC)c2c(=S)c3ccccc3[nH]c12
65

What measured residual activity goes with O=C(O)c1ccc2c3c1cccc3c(=O)n1c3ccccc3nc21 ?
34

Reported residual activity for CCN(CC)CCCCN1c2ccccc2Oc2ccc(Cl)cc21 : what is it?
137

Using the record for c1ccc(-c2n[nH]cc2-c2ccnc3ccccc23)nc1 , report its residual activity.
52

Find the recorded residual activity belonging to Cc1cc2ncc(-c3ccccc3)nc2cc1C and report it.
70

---
Item COc1cccc(-c2cc(=O)c3ccccc3o2)c1N has what recorded residual activity?
95

Record request: residual activity value, item c1ccc(-c2n[nH]c3c2oc2ccccc23)cc1
32

Recorded residual activity for CC[n+]1c(/C=C/N(C)c2ccccc2)n(-c2ccccc2)c2ccc(-c3nc4ccccc4s3)cc21 , please?
93

residual activity lookup needed for Cn1cnc2cc3c(Nc4cccc(Br)c4)ncnc3cc21 , thanks.
9

What value of measured residual activity is listed for CO[C@@H]1[C@H](N(C)C(=O)c2ccccc2)C[C@H]2O[C@]1(C)n1c3ccccc3c3c4c(c5c6ccccc6n2c5c31)C(=O)NC4 ?
27

Any idea what residual activity was measured for Cc1ccc(NC2=CC(=O)c3sc(C)nc3C2=O)cc1 ?
82

What value of residual activity has been recorded for this entry: Cc1nc2cc3nc(-c4cccs4)cnc3cc2n1C
107

Which residual activity is listed for Cc1ccc(S(=O)(=O)/C=C/C#N)cc1 ?
84
